Where do these numbers come from? They come from paper PMC9220351.

System Under Test: CYP1A2 (Homo sapiens, UniProt P05177)
Sequence (P05177 whole entry): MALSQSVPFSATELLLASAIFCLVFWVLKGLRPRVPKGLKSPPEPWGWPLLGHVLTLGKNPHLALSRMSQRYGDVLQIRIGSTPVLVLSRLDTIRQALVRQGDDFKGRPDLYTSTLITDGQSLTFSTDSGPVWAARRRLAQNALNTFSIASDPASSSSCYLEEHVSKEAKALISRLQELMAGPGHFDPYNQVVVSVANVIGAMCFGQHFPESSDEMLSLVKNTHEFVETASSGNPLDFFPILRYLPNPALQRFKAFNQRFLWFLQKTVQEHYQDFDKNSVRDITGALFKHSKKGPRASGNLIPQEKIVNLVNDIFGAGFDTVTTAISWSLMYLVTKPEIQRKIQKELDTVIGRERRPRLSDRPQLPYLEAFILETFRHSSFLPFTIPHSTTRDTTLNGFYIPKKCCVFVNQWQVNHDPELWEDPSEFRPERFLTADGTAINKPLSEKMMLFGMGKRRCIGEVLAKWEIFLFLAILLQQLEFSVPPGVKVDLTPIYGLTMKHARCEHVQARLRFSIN
pIC50: −log10 of the molar value.

Compound	pIC50
Cl.NC[C@@H]1CN[C@H](CNC(=O)c2cc3ccc(-c4ccc(F)cc4)cc3[nH]2)C1 [TXA09155]	< 4.00

====

Test system: P. aeruginosa ATCC 27853
Method Description: MIC / antibiotic potentiation assay, wild-type strain
Condition Label: TXA09155 3.13 μg/mL
Quantity Kind: Antibiotic MIC in Presence of TXA09155 at a Concentration of 3.13 (µg/mL)

Cpd Smiles	Unit Symbol	Bound Operator	Recorded Value
C[C@H]1COc2c(N3CCN(C)CC3)c(F)cc3c(=O)c(C(=O)O)cn1c23	µg/mL	=	1
COc1c(N2C[C@@H]3CCCN[C@@H]3C2)c(F)cc2c(=O)c(C(=O)O)cn(C3CC3)c12	µg/mL	=	2
C[C@H]1c2cccc(O)c2C(=O)C2=C(O)[C@]3(O)C(=O)C(C(N)=O)=C(O)[C@@H](N(C)C)[C@@H]3[C@@H](O)[C@@H]21	µg/mL	=	16
C[C@@H](O)[C@H]1C(=O)N2C(C(=O)O)=C(SCCN=CN)C[C@H]12	µg/mL	=	2
O=C(N[C@H](CO)[C@H](O)c1ccc([N+](=O)[O-])cc1)C(Cl)Cl	µg/mL	>	256
CN(C)c1ccc(O)c2c1C[C@H]1C[C@H]3[C@H](N(C)C)C(O)=C(C(N)=O)C(=O)[C@@]3(O)C(O)=C1C2=O	µg/mL	=	16
CO/N=C(\C(=O)N[C@@H]1C(=O)N2C(C(=O)[O-])=C(C[n+]3cccc4c3CCC4)CS[C@H]12)c1csc(N)n1	µg/mL	=	4
C[C@H]1[C@H](NC(=O)/C(=N\OC(C)(C)C(=O)O)c2csc(N)n2)C(=O)N1S(=O)(=O)O	µg/mL	=	4

====

System Under Test: CYP2C9 (Homo sapiens, UniProt P11712)
Sequence (P11712 whole entry): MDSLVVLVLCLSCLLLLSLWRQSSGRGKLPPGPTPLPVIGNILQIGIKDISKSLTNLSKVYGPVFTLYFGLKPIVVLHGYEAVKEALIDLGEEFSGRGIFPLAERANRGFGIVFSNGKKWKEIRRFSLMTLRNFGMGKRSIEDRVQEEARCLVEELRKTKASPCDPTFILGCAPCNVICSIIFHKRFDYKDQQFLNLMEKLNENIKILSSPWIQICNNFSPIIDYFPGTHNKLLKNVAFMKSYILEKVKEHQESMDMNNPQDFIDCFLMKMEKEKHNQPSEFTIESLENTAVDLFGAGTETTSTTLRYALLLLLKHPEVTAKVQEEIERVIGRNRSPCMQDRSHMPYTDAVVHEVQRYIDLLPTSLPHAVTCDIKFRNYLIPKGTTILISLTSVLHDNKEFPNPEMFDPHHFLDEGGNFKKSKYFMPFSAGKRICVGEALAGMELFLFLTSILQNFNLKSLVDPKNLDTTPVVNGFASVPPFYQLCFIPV
pIC50: −log10 of the molar value.

Cpd Smiles	pIC50
Cl.NC[C@@H]1CN[C@H](CNC(=O)c2cc3ccc(-c4ccc(F)cc4)cc3[nH]2)C1	< 4.00

====

System: P. aeruginosa ATCC 27853
Method Description: MIC / antibiotic potentiation assay, wild-type strain
Condition Label: Pseudomonas aeruginosa, ATCC27853, read-out: Antibiotic MIC in Presence of TXA09155 at a Concentration of 0
Recorded MIC, one value per entry.

Cpd Smiles	System Under Test	Bound Operator	MIC (µg/mL)
C[C@H]1[C@H](NC(=O)/C(=N\OC(C)(C)C(=O)O)c2csc(N)n2)C(=O)N1S(=O)(=O)O	P. aeruginosa ATCC 27853	=	8
C[C@@H](O)[C@H]1C(=O)N2C(C(=O)O)=C(SCCN=CN)C[C@H]12	P. aeruginosa ATCC 27853	=	2
CN(C)c1ccc(O)c2c1C[C@H]1C[C@H]3[C@H](N(C)C)C(O)=C(C(N)=O)C(=O)[C@@]3(O)C(O)=C1C2=O	P. aeruginosa ATCC 27853	=	32
C[C@H]1c2cccc(O)c2C(=O)C2=C(O)[C@]3(O)C(=O)C(C(N)=O)=C(O)[C@@H](N(C)C)[C@@H]3[C@@H](O)[C@@H]21	P. aeruginosa ATCC 27853	=	32
O=C(N[C@H](CO)[C@H](O)c1ccc([N+](=O)[O-])cc1)C(Cl)Cl	P. aeruginosa ATCC 27853	>	256
C[C@H]1COc2c(N3CCN(C)CC3)c(F)cc3c(=O)c(C(=O)O)cn1c23	P. aeruginosa ATCC 27853	=	1
CO/N=C(\C(=O)N[C@@H]1C(=O)N2C(C(=O)[O-])=C(C[n+]3cccc4c3CCC4)CS[C@H]12)c1csc(N)n1	P. aeruginosa ATCC 27853	=	8
COc1c(N2C[C@@H]3CCCN[C@@H]3C2)c(F)cc2c(=O)c(C(=O)O)cn(C3CC3)c12	P. aeruginosa ATCC 27853	=	2

====

System Under Test: hERG channel (Homo sapiens, UniProt Q12809)
Sequence (Q12809 whole entry): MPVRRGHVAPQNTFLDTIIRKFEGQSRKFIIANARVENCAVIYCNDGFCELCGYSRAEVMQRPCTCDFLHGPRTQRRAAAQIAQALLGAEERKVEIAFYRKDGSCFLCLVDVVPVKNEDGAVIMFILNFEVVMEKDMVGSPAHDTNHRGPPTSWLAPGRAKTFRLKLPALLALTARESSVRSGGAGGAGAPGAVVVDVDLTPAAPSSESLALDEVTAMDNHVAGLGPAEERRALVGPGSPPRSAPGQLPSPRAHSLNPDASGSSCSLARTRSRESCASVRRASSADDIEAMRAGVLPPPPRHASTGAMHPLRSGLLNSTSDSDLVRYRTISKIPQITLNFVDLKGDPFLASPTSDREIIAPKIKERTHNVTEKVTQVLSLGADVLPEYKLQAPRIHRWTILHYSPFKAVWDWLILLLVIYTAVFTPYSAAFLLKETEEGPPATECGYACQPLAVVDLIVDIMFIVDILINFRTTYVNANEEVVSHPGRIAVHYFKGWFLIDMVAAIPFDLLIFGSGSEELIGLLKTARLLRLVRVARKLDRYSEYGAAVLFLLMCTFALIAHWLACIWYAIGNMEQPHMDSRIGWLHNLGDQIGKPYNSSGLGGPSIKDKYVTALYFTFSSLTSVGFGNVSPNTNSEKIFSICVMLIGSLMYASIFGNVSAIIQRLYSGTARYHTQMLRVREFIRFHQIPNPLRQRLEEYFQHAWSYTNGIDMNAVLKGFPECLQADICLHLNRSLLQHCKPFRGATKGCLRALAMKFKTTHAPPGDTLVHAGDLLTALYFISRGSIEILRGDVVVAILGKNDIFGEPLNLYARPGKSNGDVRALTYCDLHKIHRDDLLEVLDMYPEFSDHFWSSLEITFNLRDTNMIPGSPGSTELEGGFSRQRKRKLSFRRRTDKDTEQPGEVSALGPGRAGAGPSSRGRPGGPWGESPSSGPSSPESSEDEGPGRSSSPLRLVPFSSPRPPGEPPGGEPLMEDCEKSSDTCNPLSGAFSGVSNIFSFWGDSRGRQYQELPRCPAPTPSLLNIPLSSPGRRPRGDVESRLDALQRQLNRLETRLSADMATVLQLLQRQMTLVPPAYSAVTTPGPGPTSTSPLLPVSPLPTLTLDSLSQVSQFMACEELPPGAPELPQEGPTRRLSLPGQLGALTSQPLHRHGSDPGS
Method Description: hERG patch clamp assay (Q-Patch, CHO cell line)
pIC50: −log10 of the molar value.
Quantity Kind: pIC50

Cpd Smiles	Quantity Kind	Recorded Value
Cl.NC[C@@H]1CN[C@H](CNC(=O)c2cc3ccc(-c4ccc(F)cc4)cc3[nH]2)C1	pIC50	4.80

====

Tested on: P. aeruginosa K2415 (mexXY-oprM overexpressed)
Method Description: MIC / potentiation assay, strain K2415
Format: cell-based, Pseudomonas aeruginosa
Condition Label: Pseudomonas aeruginosa, read-out: MICs K2415 (↑mexXY-oprM)
met if MIC is below 30 µg/mL. not met if not; exact matches included in not met.

Cpd Smiles	Assigned Category
C[C@@H](O)[C@H]1C(=O)N2C(C(=O)O)=C(SCCN=CN)C[C@H]12	met
CO/N=C(\C(=O)N[C@@H]1C(=O)N2C(C(=O)[O-])=C(C[n+]3cccc4c3CCC4)CS[C@H]12)c1csc(N)n1	met
O=C(N[C@H](CO)[C@H](O)c1ccc([N+](=O)[O-])cc1)C(Cl)Cl	not met
C[C@H]1c2cccc(O)c2C(=O)C2=C(O)[C@]3(O)C(=O)C(C(N)=O)=C(O)[C@@H](N(C)C)[C@@H]3[C@@H](O)[C@@H]21	not met
C[C@H]1COc2c(N3CCN(C)CC3)c(F)cc3c(=O)c(C(=O)O)cn1c23	met
CN(C)c1ccc(O)c2c1C[C@H]1C[C@H]3[C@H](N(C)C)C(O)=C(C(N)=O)C(=O)[C@@]3(O)C(O)=C1C2=O	not met

====

System Under Test: CYP3A4 (Homo sapiens, UniProt P08684)
Sequence (P08684 whole entry): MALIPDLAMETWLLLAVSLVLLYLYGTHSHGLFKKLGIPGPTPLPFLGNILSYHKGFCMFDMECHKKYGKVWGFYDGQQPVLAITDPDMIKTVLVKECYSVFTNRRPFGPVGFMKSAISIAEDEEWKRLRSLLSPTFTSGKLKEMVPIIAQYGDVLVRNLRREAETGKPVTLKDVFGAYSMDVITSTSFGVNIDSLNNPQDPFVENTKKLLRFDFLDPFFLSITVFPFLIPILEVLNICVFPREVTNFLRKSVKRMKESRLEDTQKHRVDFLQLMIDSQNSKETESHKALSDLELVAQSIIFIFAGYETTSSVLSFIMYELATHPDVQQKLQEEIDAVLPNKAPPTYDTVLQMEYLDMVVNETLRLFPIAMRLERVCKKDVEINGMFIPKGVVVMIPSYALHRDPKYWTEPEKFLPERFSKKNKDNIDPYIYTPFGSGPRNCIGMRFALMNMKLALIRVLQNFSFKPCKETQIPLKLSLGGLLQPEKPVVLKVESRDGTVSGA

Cpd Smiles	Unit Symbol	IC50
Cl.NC[C@@H]1CN[C@H](CNC(=O)c2cc3ccc(-c4ccc(F)cc4)cc3[nH]2)C1	µM	28.5

====

System Under Test: UniProt P33261
Sequence (P33261 whole entry): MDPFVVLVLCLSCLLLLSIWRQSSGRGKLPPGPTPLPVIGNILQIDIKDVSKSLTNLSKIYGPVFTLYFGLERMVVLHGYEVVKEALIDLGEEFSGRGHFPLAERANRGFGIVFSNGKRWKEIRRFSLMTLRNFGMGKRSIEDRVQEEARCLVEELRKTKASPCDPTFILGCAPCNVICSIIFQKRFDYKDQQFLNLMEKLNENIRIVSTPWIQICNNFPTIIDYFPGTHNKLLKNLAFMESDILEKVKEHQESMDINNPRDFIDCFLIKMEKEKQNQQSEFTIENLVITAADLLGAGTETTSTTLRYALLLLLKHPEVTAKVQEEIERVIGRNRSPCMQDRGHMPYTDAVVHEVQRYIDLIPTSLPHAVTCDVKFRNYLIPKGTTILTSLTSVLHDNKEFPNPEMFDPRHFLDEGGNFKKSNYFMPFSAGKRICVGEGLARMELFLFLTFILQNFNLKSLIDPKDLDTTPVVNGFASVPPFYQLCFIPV
pIC50: −log10 of the molar value.

Cpd Smiles	System Under Test	pIC50
Cl.NC[C@@H]1CN[C@H](CNC(=O)c2cc3ccc(-c4ccc(F)cc4)cc3[nH]2)C1	UniProt P33261	< 4.00

====

System Under Test: CYP2D6 (Homo sapiens)
Sequence (P10635 whole entry): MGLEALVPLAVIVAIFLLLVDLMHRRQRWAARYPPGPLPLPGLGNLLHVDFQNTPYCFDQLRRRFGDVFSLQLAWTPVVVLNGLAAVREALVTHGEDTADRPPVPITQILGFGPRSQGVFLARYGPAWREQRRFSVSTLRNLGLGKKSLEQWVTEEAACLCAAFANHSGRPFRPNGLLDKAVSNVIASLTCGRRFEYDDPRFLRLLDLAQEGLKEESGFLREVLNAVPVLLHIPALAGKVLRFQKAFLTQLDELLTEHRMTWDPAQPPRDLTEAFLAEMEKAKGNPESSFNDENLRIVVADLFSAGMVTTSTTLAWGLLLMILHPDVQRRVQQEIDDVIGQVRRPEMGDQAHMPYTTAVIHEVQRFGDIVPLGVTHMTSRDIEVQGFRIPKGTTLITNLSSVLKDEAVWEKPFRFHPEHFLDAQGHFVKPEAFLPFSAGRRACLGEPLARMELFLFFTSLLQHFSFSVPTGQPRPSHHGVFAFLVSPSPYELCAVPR
Quantity Kind: IC50 (µM)

Compound	Unit Symbol	Recorded Value
Cl.NC[C@@H]1CN[C@H](CNC(=O)c2cc3ccc(-c4ccc(F)cc4)cc3[nH]2)C1 [TXA09155]	µM	67.2

====

Tested on: P. aeruginosa K1455 (mexAB-oprM overexpressed)
Method Description: microbe, parasite or virus in culture
Type: cell-based, Pseudomonas aeruginosa
Condition Label: Pseudomonas aeruginosa, read-out: MICs K1455 (↑mexAB-oprM)
Quantity Kind: MIC (µg/mL)

Compound	System Under Test	Quantity Kind	Unit Symbol	Bound Operator	Recorded Value
CO/N=C(\C(=O)N[C@@H]1C(=O)N2C(C(=O)[O-])=C(C[n+]3cccc4c3CCC4)CS[C@H]12)c1csc(N)n1 [Cefpirome]	P. aeruginosa K1455 (mexAB-oprM overexpressed)	MIC	µg/mL	=	8
CN(C)c1ccc(O)c2c1C[C@H]1C[C@H]3[C@H](N(C)C)C(O)=C(C(N)=O)C(=O)[C@@]3(O)C(O)=C1C2=O [Minocycline]	P. aeruginosa K1455 (mexAB-oprM overexpressed)	MIC	µg/mL	>	256
C[C@@H](O)[C@H]1C(=O)N2C(C(=O)O)=C(SCCN=CN)C[C@H]12 [Imipenem]	P. aeruginosa K1455 (mexAB-oprM overexpressed)	MIC	µg/mL	=	1
O=C(N[C@H](CO)[C@H](O)c1ccc([N+](=O)[O-])cc1)C(Cl)Cl [Chloramphenicol]	P. aeruginosa K1455 (mexAB-oprM overexpressed)	MIC	µg/mL	>	256
C[C@H]1c2cccc(O)c2C(=O)C2=C(O)[C@]3(O)C(=O)C(C(N)=O)=C(O)[C@@H](N(C)C)[C@@H]3[C@@H](O)[C@@H]21 [Doxycycline]	P. aeruginosa K1455 (mexAB-oprM overexpressed)	MIC	µg/mL	≥	256
C[C@H]1COc2c(N3CCN(C)CC3)c(F)cc3c(=O)c(C(=O)O)cn1c23 [Levofloxacin]	P. aeruginosa K1455 (mexAB-oprM overexpressed)	MIC	µg/mL	=	4

====

Tested on: P. aeruginosa mutants EPIR1S, EPIR9S, EPIR20L, EPIR43
Method Description: MIC of antimicrobials in TXA09155-resistant mutants
Type: cell-based, Pseudomonas aeruginosa
Condition Label: Pseudomonas aeruginosa, strain EPIR9S (phoQ-L175R)

Cpd Smiles	MIC (µg/mL)
C[C@H]1c2cccc(O)c2C(=O)C2=C(O)[C@]3(O)C(=O)C(C(N)=O)=C(O)[C@@H](N(C)C)[C@@H]3[C@@H](O)[C@@H]21	16
C[C@@H](O)[C@H]1C(=O)N2C(C(=O)O)=C(S[C@@H]3CN[C@H](C(=O)N(C)C)C3)[C@H](C)[C@H]12	1
C[C@H]1COc2c(N3CCN(C)CC3)c(F)cc3c(=O)c(C(=O)O)cn1c23	1
Cl.NC[C@@H]1CN[C@H](CNC(=O)c2cc3ccc(-c4ccc(F)cc4)cc3[nH]2)C1	100
